meta.source: patent US12486267B2

Target: human TLR7 (Homo sapiens, UniProt Q9NYK1)
Sequence (Q9NYK1 27-1049): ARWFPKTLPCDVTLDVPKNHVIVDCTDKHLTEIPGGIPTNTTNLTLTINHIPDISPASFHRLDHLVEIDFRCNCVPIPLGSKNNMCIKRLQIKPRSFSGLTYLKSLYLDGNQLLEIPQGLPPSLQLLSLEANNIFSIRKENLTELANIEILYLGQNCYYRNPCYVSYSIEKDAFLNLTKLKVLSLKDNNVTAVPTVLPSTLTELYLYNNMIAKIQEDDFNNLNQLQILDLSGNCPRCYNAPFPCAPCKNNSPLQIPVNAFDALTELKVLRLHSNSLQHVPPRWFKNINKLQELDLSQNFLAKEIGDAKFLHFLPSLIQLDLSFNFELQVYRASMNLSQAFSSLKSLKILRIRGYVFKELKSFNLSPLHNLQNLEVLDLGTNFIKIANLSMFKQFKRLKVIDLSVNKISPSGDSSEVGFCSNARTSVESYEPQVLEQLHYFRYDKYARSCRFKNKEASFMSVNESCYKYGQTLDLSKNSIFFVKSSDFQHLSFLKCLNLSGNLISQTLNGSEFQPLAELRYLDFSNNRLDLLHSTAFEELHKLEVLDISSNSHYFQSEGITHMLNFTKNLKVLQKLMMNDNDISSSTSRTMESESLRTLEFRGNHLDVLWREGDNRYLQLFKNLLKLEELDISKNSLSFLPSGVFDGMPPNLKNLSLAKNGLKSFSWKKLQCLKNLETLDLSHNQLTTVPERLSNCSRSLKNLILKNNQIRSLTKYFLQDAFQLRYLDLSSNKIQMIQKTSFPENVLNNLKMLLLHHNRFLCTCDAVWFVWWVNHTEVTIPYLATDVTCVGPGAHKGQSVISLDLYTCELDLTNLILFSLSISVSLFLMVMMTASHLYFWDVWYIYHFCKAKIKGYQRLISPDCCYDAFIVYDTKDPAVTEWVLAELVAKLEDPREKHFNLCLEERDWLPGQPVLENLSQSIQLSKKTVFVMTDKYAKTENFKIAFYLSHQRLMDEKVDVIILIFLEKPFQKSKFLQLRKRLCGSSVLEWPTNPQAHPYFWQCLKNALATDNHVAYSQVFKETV
Experiment: TLR7 inhibition reporter assay (HEK-Blue cells, SEAP reporter)
Details: HEK-Blue cells overexpressing human TLR7; stimulated with gardiquimod 7.5 μM; 22 hour incubation; SEAP readout
Excerpt: TLR7/8/9 Inhibition Reporter Assays HEK-Blue™-cells (Invivogen) overexpressing human TLR7, TLR8 or TLR9 receptors were used for screening inhibitors of these receptors using an inducible SEAP (secreted embryonic alkaline phosphatase) reporter gene under the control of the […] minimal promoter fused to five NF-κB and AP-1-binding sites. […]
test readout: IC50 (µM)

Guide cases for IC50, answers given:
{"molecule": "COc1ccc(-c2cn3cc(C4CCN(C5CC6CCC(C5)N6C(C)C)CC4)cc(C)c3n2)cc1OC (single isomer, unassigned) [Example 23]", "test system": "human TLR7 (Homo sapiens, UniProt Q9NYK1)", "unit name": "µM", "IC50": 31}
{"molecule": "COc1ccc(-c2cn3cc(C4CCN(C5CC6(C5)CN(CC5CC5)C6)CC4)cc(C)c3n2)cc1OC [Example 16]", "test system": "human TLR7 (Homo sapiens, UniProt Q9NYK1)", "unit name": "µM", "IC50": 2}
{"molecule": "COc1ccc(-c2cn3c(n2)CCC(C2CCN(C4CCN(C(=O)C(C)C)CC4)CC2)C3)cc1OC (single isomer, unassigned) [Example 40]", "test system": "human TLR7 (Homo sapiens, UniProt Q9NYK1)", "unit name": "µM", "IC50": 38}
{"molecule": "CS(=O)(=O)c1ccc(-c2cn3cc(C4CCN(C5CC6CCC(C5)N6C5CCOCC5)CC4)cc(F)c3n2)cc1 (single isomer, unassigned) [Example 121]", "test system": "human TLR7 (Homo sapiens, UniProt Q9NYK1)", "unit name": "µM", "IC50": 3.4}
{"molecule": "Cc1cc(C2CCN(C3CC4CCC(C3)N4CC3CC3)CC2)cn2cc(-c3ccc(S(C)(=O)=O)cc3)nc12 (single isomer, unassigned) [Example 87]", "test system": "human TLR7 (Homo sapiens, UniProt Q9NYK1)", "unit name": "µM", "IC50": 4.4}

[A] COc1ccc(-c2cn3cc(C4CCN(C5CC6CCC(C5)N6CC5CC5)CC4)cc(C)c3n2)cc1OC (single isomer, unassigned) [Example 21]
[B] Cc1cc(-c2ccc(N3CCN(C(C)C)CC3)cc2)cn2cc(-c3ccc(S(C)(=O)=O)cc3)nc12 [Example 65]
[C] COc1ccc(-c2cn3c(n2)CC[C@H](C2CCN(C4CC5CCC(C4)N5CC(C)C)CC2)C3)cc1OC (single isomer, unassigned) [Example 76]
[D] COc1ccc(-c2cn3c(n2)CC[C@@H](C2CCN(C4CC5CCC(C4)N5CC(C)C)CC2)C3)cc1OC (single isomer, unassigned) [Example 78]
[E] Cc1cc(-c2ccc(N3CCN(C4COC4)CC3)cc2)cn2cc(-c3ccc(S(C)(=O)=O)cc3)nc12 [Example 103]
Order the items by recorded IC50; the first position goes to the largest value. # list labels per requested ordering
E, D, B, A, C

[A] CS(=O)(=O)c1ccc(-c2cn3cc(C4CCN(C5CCN(C6CCC6)CC5)CC4)cc(F)c3n2)cc1 [Example 110]
[B] COc1ccc(-c2cn3cc(C4CCN(C5CCN(C(C)C)CC5)CC4)cc(C)c3n2)cc1OC [Example 2]
Please choose the item with the lower IC50 value from this pair: A and B Output the label that corresponds to your choice.
A

[a] COc1ccc(-c2cn3cc(C4CCN(C5CCN(CC(C)C)CC5)CC4)ccc3n2)cc1OC [Example 12]
[b] CC(C)N1CCC(N2CCC(c3ccn4cc(-c5ccc(S(C)(=O)=O)cc5)nc4c3F)CC2)CC1 [Example 132]
Look at a and b . Which one has the lower recorded IC50 number? Reply with the label of the item you choose.
a

----------
target: UniProtKB Q9NYK1; assay: TLR7 inhibition reporter assay (HEK-Blue cells, SEAP reporter); settings: HEK-Blue cells overexpressing human TLR7; stimulated with gardiquimod 7.5 μM; 22 hour incubation; SEAP readout
test readout: IC50 (µM)
Give the value, in units of µM, as a plain number.

Worked set:
{"compound": "CC(C)CN1CCC(N2CCC(c3ccn4cc(-c5ccc(S(C)(=O)=O)cc5)nc4c3F)CC2)CC1", "test system": "UniProtKB Q9NYK1", "unit name": "µM", "IC50": 2.4}
{"compound": "Cc1cc(C2CC3CCC(C2)N3C2CCN(C(C)C)CC2)cn2nc(-c3ccc(S(C)(=O)=O)cc3)nc12 (stereo not drawn)", "test system": "UniProtKB Q9NYK1", "unit name": "µM", "IC50": 6.9}

Here's the next entry for you.
Entry COc1ccc(-c2cn3cc(C4CC5CCC(C4)N5C4CCN(C5CC5)CC4)cc(C)c3n2)cc1OC (single isomer, unassigned) [Example 26] , IC50 reported as 2

----------
biological target: UniProt:Q9NR97; assay: TLR8 inhibition reporter assay (HEK-Blue cells, SEAP reporter); conditions: HEK-Blue cells overexpressing human TLR8; stimulated with R848 15.9 μM; 22 hour incubation; SEAP readout
Sequence (Q9NR97 27-1041): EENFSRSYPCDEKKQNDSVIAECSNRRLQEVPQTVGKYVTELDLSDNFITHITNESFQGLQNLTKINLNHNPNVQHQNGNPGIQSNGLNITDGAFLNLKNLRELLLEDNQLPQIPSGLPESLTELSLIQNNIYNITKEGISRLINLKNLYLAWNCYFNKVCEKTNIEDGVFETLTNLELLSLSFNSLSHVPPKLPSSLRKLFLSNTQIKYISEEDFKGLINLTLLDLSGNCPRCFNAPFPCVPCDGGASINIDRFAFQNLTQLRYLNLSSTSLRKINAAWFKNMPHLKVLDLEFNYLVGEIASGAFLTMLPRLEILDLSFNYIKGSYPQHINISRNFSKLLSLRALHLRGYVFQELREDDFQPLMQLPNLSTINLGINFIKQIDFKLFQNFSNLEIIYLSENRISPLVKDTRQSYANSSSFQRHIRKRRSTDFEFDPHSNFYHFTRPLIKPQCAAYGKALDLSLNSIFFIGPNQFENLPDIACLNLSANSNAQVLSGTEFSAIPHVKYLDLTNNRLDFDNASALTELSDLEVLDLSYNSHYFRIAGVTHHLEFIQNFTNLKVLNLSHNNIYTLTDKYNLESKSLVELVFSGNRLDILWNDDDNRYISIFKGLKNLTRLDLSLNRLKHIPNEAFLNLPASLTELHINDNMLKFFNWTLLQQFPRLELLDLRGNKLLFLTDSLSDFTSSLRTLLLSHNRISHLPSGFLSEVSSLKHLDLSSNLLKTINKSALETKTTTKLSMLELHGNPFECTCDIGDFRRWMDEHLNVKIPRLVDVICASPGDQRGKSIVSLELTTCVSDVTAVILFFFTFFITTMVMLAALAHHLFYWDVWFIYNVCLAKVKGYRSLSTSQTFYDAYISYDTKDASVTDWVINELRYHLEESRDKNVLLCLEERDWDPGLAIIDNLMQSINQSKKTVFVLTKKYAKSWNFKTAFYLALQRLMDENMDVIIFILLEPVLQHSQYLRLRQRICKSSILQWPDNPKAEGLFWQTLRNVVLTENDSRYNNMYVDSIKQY
test readout: IC50

Observe how each entry below is paired with its result.
{"compound": "CS(=O)(=O)c1ccc(-c2cn3cc(C4CCN(C5CC6CCC(C5)N6CC5CC5)CC4)cc(F)c3n2)cc1 (single isomer, unassigned) [Example 115]", "IC50": "49 µM"}
{"compound": "COc1ccc(-c2cn3c(n2)CC[C@@H](C2CCN(C4CC5CCC(C4)N5CC(C)C)CC2)C3)cc1OC (single isomer, unassigned) [Example 78]", "IC50": "> 25 µM"}
{"compound": "COc1ccc(-c2cn3c(n2)CCC(C2CCN(C4CCN(C(=O)C5CC5)CC4)CC2)C3)cc1OC (racemic) [Example 42]", "IC50": "> 50 µM"}
{"compound": "COc1ccc(-c2cn3c(n2)CCC(C2CCN(C4CCN(C(=O)C5CC5)CC4)CC2)C3)cc1OC (single isomer, unassigned) [Example 43]", "IC50": "> 50 µM"}
{"compound": "Cc1cc(-c2ccc(N3CCN(C(C)C)CC3)cc2)cn2cc(-c3ccc(S(C)(=O)=O)cc3)nc12 [Example 65]", "IC50": "> 50 µM"}

Recorded IC50 (compound CS(=O)(=O)c1ccc(-c2cn3cc(C4CCN(C5CCCN(C6CCOCC6)CC5)CC4)cc(F)c3n2)cc1 (single isomer, unassigned) [Example 130] ): 22.5 µM

For reference, reported IC50 for CS(=O)(=O)c1ccc(-c2cn3cc(C4CCN(C5CCCN(CC6CC6)CC5)CC4)cc(F)c3n2)cc1 (single isomer, unassigned) [Example 127] stands at 36 µM

Recorded result, COc1ccc(-c2cn3c(n2)CCC(C2CCN(C4CCN(CC(C)C)CC4)CC2)C3)cc1OC (racemic) [Example 31] , IC50: > 50 µM

Item: COc1ccc(-c2cn3c(n2)CCC(C2CCN(C4CCN(CC5CC5)CC4)CC2)C3)cc1OC (racemic) [Example 55] | IC50: > 50 µM

The compound identified as COc1ccc(-c2cn3cc(C4CCN(C5CC6(C5)CN(CC5CC5)C6)CC4)cc(C)c3n2)cc1OC [Example 16] registered its IC50 at > 50 µM

----------
biological target: human TLR9 (Homo sapiens, UniProt Q9NR96); experiment: TLR9 inhibition reporter assay (HEK-Blue cells, SEAP reporter); conditions: HEK-Blue cells overexpressing human TLR9; stimulated with ODN2006 5 nM; 22 hour incubation; SEAP readout
Sequence (Q9NR96 26-1032): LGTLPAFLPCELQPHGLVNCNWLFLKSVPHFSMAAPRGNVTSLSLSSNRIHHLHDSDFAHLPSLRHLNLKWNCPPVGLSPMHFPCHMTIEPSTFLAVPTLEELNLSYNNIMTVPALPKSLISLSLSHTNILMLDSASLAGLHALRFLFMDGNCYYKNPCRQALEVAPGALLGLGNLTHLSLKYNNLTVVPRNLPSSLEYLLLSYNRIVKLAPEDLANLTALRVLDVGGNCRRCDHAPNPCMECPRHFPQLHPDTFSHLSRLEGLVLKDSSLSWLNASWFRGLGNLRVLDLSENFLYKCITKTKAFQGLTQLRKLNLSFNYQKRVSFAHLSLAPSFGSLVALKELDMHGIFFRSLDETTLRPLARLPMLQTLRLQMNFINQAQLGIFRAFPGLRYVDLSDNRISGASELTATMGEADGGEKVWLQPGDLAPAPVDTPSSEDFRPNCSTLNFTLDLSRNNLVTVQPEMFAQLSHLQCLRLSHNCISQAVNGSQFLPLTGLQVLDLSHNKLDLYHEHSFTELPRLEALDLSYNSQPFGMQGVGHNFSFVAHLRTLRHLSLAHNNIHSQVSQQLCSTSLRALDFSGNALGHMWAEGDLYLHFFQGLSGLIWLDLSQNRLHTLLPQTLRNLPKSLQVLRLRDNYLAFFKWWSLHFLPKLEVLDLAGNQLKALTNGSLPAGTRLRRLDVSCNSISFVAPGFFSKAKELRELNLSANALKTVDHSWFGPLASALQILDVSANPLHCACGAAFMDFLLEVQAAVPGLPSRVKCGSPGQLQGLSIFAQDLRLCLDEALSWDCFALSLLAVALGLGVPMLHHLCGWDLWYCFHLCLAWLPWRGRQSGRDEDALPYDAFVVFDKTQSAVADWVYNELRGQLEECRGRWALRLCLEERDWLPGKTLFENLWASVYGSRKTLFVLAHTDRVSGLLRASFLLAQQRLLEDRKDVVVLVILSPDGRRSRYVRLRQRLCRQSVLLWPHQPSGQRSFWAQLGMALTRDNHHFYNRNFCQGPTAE
test readout: IC50 (nM)

Sample answers from the record:
{"compound": "COc1ccc(-c2cn3c(n2)CC[C@H](C2CCN(C4CC5CCC(C4)N5C(C)C)CC2)C3)cc1OC (single isomer, unassigned) [Example 135]", "IC50, nM": 42}
{"compound": "COc1ccc(-c2nc3ccc(C4CC5CCC(C4)N5C4CCN(C5CC5)CC4)cn3n2)cc1OC (stereo not shown)", "IC50, nM": 769}

[I] CS(=O)(=O)c1ccc(-c2cn3cc(C4CCN(C5CC6CCC(C5)N6CC5CC5)CC4)cc(F)c3n2)cc1 (single isomer, unassigned) [Example 115]
[II] CS(=O)(=O)c1ccc(-c2cn3ccc(C4CCN(C5CCN(C6CCOCC6)CC5)CC4)c(F)c3n2)cc1
Between I and II , whose measured IC50 reads higher? Your answer should be the label of the entry you select.
I

----------
biological target: human TLR7 (Homo sapiens); assay: TLR7 inhibition reporter assay (HEK-Blue cells, SEAP reporter); conditions: HEK-Blue cells overexpressing human TLR7; stimulated with gardiquimod 7.5 μM; 22 hour incubation; SEAP readout
pIC50: −log10 of the molar value.
test readout: pIC50

Use the examples below as a reference point.
{"molecule": "COc1ccc(-c2cn3cc(C4C[C@H]5CC[C@@H](C4)N5C4CCN(C(C)C)CC4)cc(C)c3n2)cc1OC (mixture of isomers) [Example 30]", "test system": "human TLR7 (Homo sapiens)", "pIC50": 5.85}
{"molecule": "CS(=O)(=O)c1ccc(-c2cn3cc(C4CCN(C5CCN(C6CC6)CC5)CC4)cc(F)c3n2)cc1 [Example 108]", "test system": "human TLR7 (Homo sapiens)", "pIC50": 4.53}
{"molecule": "Cc1cc(C2CCN(C3CC4CCC(C3)N4C(C)C)CC2)cn2cc(-c3ccc(S(C)(=O)=O)cc3)nc12 (single isomer, unassigned) [Example 63]", "test system": "human TLR7 (Homo sapiens)", "pIC50": 5.24}

[1] COc1ccc(-c2nc3cc(C4CCN(C5CCN(C(C)C)CC5)CC4)ccn3n2)cc1OC [Example 60]
[2] CS(=O)(=O)c1ccc(-c2cn3cc(C4CCN(C5CC6CCC(C5)N6CC5CC5)CC4)cc(F)c3n2)cc1 (single isomer, unassigned) [Example 116]
Of the two listed items, which has the higher pIC50? First: 1 Second: 2 Answer by quoting the chosen item's label.
2
(2: 6.15, 1: 4.54)
